Where do the numbers come from? From ChEMBL document CHEMBL1143295.

IC50 values recorded for Insulin receptor (Homo sapiens, UniProt P06213)

Some entries whose results are on file:
1. CN(C(=O)c1ccccc1)c1ccc2c(c1)nc(NC(=O)c1ccc(Br)s1)n2CCC(N)=O :: 0.63 µM
2. CN(C(=O)c1ccccc1)c1ccc2c(c1)nc(NC(=O)c1ccc(-c3ccnc(F)c3)s1)n2CCC(N)=O :: > 6 µM

Quick one: IC50 for CN(C(=O)c1ccccc1)c1ccc2c(c1)nc(NC(=O)c1ccc(Br)cc1)n2CCC(N)=O ? > 6 µM

Further, for CN(C(=O)c1ccccc1)c1ccc2c(c1)[nH]/c(=N\C(=O)c1ccc(-c3ccccc3)cc1)n2CCC(N)=O ? > 6 µM

Here is the next compound: CN(C(=O)c1ccccc1)c1ccc2c(c1)[nH]/c(=N\C(=O)c1ccc(-c3ccccn3)s1)n2CCC(N)=O > 6 µM

Same again, this time with CN(C(=O)c1ccccc1)c1ccc2c(c1)[nH]/c(=N\C(=O)c1cccc(-c3ccccc3)c1)n2CCC(N)=O > 6 µM

Now try CN(C(=O)c1ccccc1)c1ccc2c(c1)[nH]/c(=N\C(=O)c1ccc(N3CCCC3)s1)n2CCC(N)=O . > 6 µM
